biological target: NGF (nerve growth factor) (Homo sapiens, UniProt P01138 P01138:122-241); assay: cell_activity; neurite; TF-1 0.030; details: tags: R&D Systems; chain copies: 2
Sequence (P01138 122-241, one chain of several): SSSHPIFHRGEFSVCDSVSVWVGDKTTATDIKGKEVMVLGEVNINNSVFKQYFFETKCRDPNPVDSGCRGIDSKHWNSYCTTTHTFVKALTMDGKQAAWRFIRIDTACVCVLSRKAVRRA
readout label: pIC50
Scale: pIC50 equals -log10([C]), with [C] in mol/L.

**Q:** Which measured pIC50 value corresponds to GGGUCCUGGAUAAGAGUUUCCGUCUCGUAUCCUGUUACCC (ssRNA, as 82(1) except 2'-OMe U23) [SEQ ID NO: 82(7)] ?
**A:** 9.84
